assay: basal RPMI8226 viability, no added stimulus, profiling panel, cell-based, calcein-AM fluorescence, 48 h, PK04 Diversity Set (AID 1166); details: RPMI8226 myeloma viability, higher = more signal;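 also: cells grown under basal conditions without added stimulus; test concentration not given here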
Binarize z-score at -2; below is true, at or above is false.

Lab log: compare recorded z-score with -2; is it strictly lower for C=CC[C@@]12N=C(c3ccc(OCCCO)cc3)O[C@@H]1c1ccccc1N(C)C2=O ?
true

Next:
Lab log: compare recorded z-score with -2; is it strictly lower for CCCC[C@H]1OB(O)C[C@H]2C1=C(COC)C[C@H]1C(=O)N(C)C(=O)[C@H]12 ?
false

Lab log: compare recorded z-score with -2; is it strictly lower for COC(=O)[C@@]1(Cc2ccc(OC)cc2)[C@@H]2C(=CC(=O)[C@H]2CC(=O)C(=O)N2CCCC2)CN1C(=O)c1ccccc1 ?
false

Lab log: compare recorded z-score with -2; is it strictly lower for O[C@@H](Cc1ccccc1)[C@H]1C2C=CCCC=C2CN1Cc1cccc(Cl)c1 (stereo not given in full) ?
true

Lab log: compare recorded z-score with -2; is it strictly lower for COC(=O)[C@@]1(Cc2ccc(OC)cc2)[C@H]2c3cc(C(=O)N4CCCC4)n(Cc4ccc(O)c(OC)c4)c3C[C@H]2CN1C(=O)c1ccccc1 ?
false

Lab log: compare recorded z-score with -2; is it strictly lower for COC(=O)[C@@]1(Cc2ccc(OC)cc2)[C@H]2c3cc(C(=O)N4CCCC4)n(Cc4ccc(C)c(F)c4F)c3C[C@H]2CN1C(=O)c1ccccc1 ?
true

Lab log: compare recorded z-score with -2; is it strictly lower for COc1ccc(CCNC(=O)[C@@]2(Sc3ccc(C)cc3)CC(=O)N(C(C)C)[C@@H]2c2ccc(CO)cc2I)cc1 ?
true

Lab log: compare recorded z-score with -2; is it strictly lower for CC(CO)N1C(=O)[C@@H]2C3C(=O)OCCC/C=C\[C@H]3OC23C=CCN(C(C)(C)C)C(=O)[C@@H]13 (stereo not given in full) ?
false

Lab log: compare recorded z-score with -2; is it strictly lower for C=C(COC)/C(=C/C[C@H](OC(C)=O)c1ccc(CO)o1)c1cc(C(=O)OC)ccc1OC ?
false

Lab log: compare recorded z-score with -2; is it strictly lower for COCCOC(=O)N1C(=O)[C@@]2(c3ccccc31)[C@H](c1ccc(O)cc1)N1[C@H](c3ccccc3)[C@H](c3ccccc3)OC(=O)[C@H]1[C@@H]2C(=O)Nc1nc2ccccc2s1 ?
true

Lab log: compare recorded z-score with -2; is it strictly lower for Cc1ccc(N2C(=O)c3ccccc3[C@@H](C(=O)NC3CC3)[C@@H]2c2ccc(CO)cc2)nc1 ?
true

Lab log: compare recorded z-score with -2; is it strictly lower for C=C[C@H](OC)[C@@H](OC(=O)Nc1ccc(OC)cc1)c1ccc(O)c(F)c1 ?
true

Lab log: compare recorded z-score with -2; is it strictly lower for Cc1ccc(S[C@]2(C(=O)NCCCN(C)C)CC(=O)N(Cc3cc(C(F)(F)F)cc(C(F)(F)F)c3)[C@@H]2c2ccc(CO)cc2)cc1 ?
false

Lab log: compare recorded z-score with -2; is it strictly lower for CCCCCCc1nc(-c2cc(C)c(OC)c(C)c2)cc2c1[Si](C(C)C)(C(C)C)OC2 ?
false

* * *

assay: yeast growth modulation, basal conditions, primary screen, YJM789 clinical isolate, OD600, 24 h (AID 1089);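 also: growth of clinical yeast isolate S. cerevisiae YJM 789 seeded 1000 cells per well; test concentration not given here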; conditions: S. cerevisiae YJM789 growth, higher = more signal, called active from +8 up or from −8 down
Endpoint name: z-score
Please reply with the value in numeric form only.

Solved cases (3 shown):
For this compound ( O=C1c2ccccc2[C@](Cc2ccccc2I)(C(=O)NCC(F)(F)F)[C@H](c2ccc(CO)cc2)N1Cc1ccccc1Cl ), measured z-score is -0.893

For this compound ( C=CCN1C(=O)[C@]2(O[C@H](CCn3cc([C@H](O)c4ccccc4)nn3)[C@@H]([Si](C)(C)c3ccc(OC)cc3)[C@@H]2C)c2ccccc21 ), measured z-score is -1.25

For this compound ( O=C1[C@@]23C=C(Br)[C@H](C[C@@H]2CCOC3)[C@@]12CO2 ), measured z-score is 0.24

Could you now consider this next compound?
For this compound ( CC(C)=CCCC(C)=CC(O)C1C=CC2C(=O)N(C)C(=O)C2N1Nc1ccccc1 (stereo unspecified) ), measured z-score is -0.193

* * *

assay: small-molecule microarray binders of probe aCHRDL2, primary screen, biochemical, biotinylated probe, 635/667 nm fluorescence (AID 1100); details: higher = more signal
Endpoint name: composite z-score
Please reply with the value in numeric form only.

For this compound ( CC1CC/C=C\[C@H]2OC34C=CCN(C(C)(C)C)C(=O)[C@H]3N(CCO)C(=O)[C@@H]4C2C(=O)O1 (some centres undefined) ), measured composite z-score is 0.51

For this compound ( C[N+](C)(C)CCCCNC(=O)[C@@H]1C[C@@H]2C(=O)N[C@@H](Cc3ccccc3)C(=O)N2[C@@H]1c1cccc(OCCO)c1 ), measured composite z-score is 0.361

For this compound ( C=C(CCCC)/C(=C/C[C@H](OC(=O)c1ccncc1)c1ccccc1OCCO)c1cnc2ccccc2c1 ), measured composite z-score is -0.286

For this compound ( CCCC[C@@H]1C[C@H]1[C@@H](NC(=O)c1ccco1)c1ccccc1C(F)(F)F ), measured composite z-score is 1.39

For this compound ( COC(=O)C[C@H]1O[C@]2(C(=O)N(C)c3ccccc32)[C@@H](C)[C@@H]1[Si](C)(C)F ), measured composite z-score is -0.583

For this compound ( COc1cc2c(cc1O)C(c1cccs1)N(C)CC2 (centres undefined) ), measured composite z-score is 0.0135

For this compound ( NC(=O)[C@@H]1[C@H]2C(=O)O[C@H](c3ccccc3)[C@H](c3ccccc3)N2[C@H](c2ccc(O)cc2)[C@@]12C(=O)Nc1ccccc12 ), measured composite z-score is 0.798

For this compound ( O=C1N(Cc2ccccc2)c2ccccc2[C@@H]2OC(c3ccc(OCCCO)cc3)=N[C@]12CCS(=O)(=O)c1ccccc1 ), measured composite z-score is 0.78

Next:
For this compound ( COC(=O)[C@@]1(Cc2ccc(F)cc2)[C@H]2c3cc(C(=O)N(C)C)n(Cc4ccc(Cl)c(C(F)(F)F)c4)c3C[C@H]2CN1C(=O)c1ccccc1 ), measured composite z-score is 1.46

* * *

composite z-score values for the compounds below.
test: small-molecule binders of probe aNOTCH3, primary screen, biochemical, small-molecule microarray, 635/667 nm fluorescence (AID 1120); conditions: higher = more signal;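 also: probe is a biotin-tagged antibody raised against NOTCH3 rather than NOTCH3 protein; score merges spot fluorescence near 667 nm with spot signal to noise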
Please reply with the value in numeric form only.

Solved cases (8 shown):
For this compound ( COc1cc2c(cc1O)C(C1CC1)N(Cc1sc3ccccc3c1Cl)CC2 (stereo not drawn) ), measured composite z-score is -0.152

For this compound ( C=CCOC(=O)[C@H]1[C@@H]2C(=O)O[C@@H](c3ccccc3)[C@@H](c3ccccc3)N2[C@@H](c2ccc(OCCOC(=O)[C@@H]3C[C@@H]4C(=O)N[C@@H](CCCCNC(C)=O)C(=O)N4[C@@H]3c3ccc(O)cc3)cc2)[C@]12C(=O)Nc1ccccc12 ), measured composite z-score is 0.173

For this compound ( CCOC(=O)C[C@H]1[C@H](OC(=O)c2ccc(C(=O)c3ccccc3)cc2)[C@@H](NC(=O)c2ccccc2)c2cc(OCCCO)ccc2N1C(=O)Cc1ccc(OC)cc1 ), measured composite z-score is 0.0242

For this compound ( COCC(=C=CC[C@@H](O)c1cccc(OCCO)c1)C[C@@H](O)c1ccccn1 ), measured composite z-score is 0.0979

For this compound ( C=C(COC)/C(=C/C[C@@H](OC(C)=O)c1ccc(OCCO)cc1)c1cnc2ccccc2c1 ), measured composite z-score is 0.112

For this compound ( C=CCOC(=O)[C@@H]1[C@H]2C(=O)O[C@H](c3ccccc3)[C@H](c3ccccc3)N2[C@H](c2ccc(OCCOC(=O)[C@@H]3C[C@@H]4C(=O)NCC(=O)N4[C@@H]3c3ccc(O)cc3)cc2)[C@@]12C(=O)Nc1ccc(I)cc12 ), measured composite z-score is -0.0879

For this compound ( O=C1N[C@@H](Cc2ccccc2)C(=O)N2[C@@H]1C[C@@H](C(=O)O)[C@H]2c1cccc(OCCO)c1 ), measured composite z-score is -0.0362

For this compound ( CC(C)(C)OC(=O)CC[C@]1(C(=O)N2CCOCC2)N=C(c2ccc(OCCCO)cc2)O[C@H]1c1ccccc1N=[N+]=[N-] ), measured composite z-score is 0.133

Could you now consider this next compound?
For this compound ( COc1ccc(C#Cc2ccc3c(c2)[C@]2(C(=O)N3)[C@H](C(=O)Nc3nc4ccccc4s3)[C@H]3C(=O)O[C@H](c4ccccc4)[C@H](c4ccccc4)N3[C@@H]2c2ccc(O)cc2)cc1 ), measured composite z-score is 1.29
